Measured On: dTRPA1 (Canis lupus familiaris, UniProt A0A8I3Q1Q7)
Sequence (A0A8I3Q1Q7 1-1118): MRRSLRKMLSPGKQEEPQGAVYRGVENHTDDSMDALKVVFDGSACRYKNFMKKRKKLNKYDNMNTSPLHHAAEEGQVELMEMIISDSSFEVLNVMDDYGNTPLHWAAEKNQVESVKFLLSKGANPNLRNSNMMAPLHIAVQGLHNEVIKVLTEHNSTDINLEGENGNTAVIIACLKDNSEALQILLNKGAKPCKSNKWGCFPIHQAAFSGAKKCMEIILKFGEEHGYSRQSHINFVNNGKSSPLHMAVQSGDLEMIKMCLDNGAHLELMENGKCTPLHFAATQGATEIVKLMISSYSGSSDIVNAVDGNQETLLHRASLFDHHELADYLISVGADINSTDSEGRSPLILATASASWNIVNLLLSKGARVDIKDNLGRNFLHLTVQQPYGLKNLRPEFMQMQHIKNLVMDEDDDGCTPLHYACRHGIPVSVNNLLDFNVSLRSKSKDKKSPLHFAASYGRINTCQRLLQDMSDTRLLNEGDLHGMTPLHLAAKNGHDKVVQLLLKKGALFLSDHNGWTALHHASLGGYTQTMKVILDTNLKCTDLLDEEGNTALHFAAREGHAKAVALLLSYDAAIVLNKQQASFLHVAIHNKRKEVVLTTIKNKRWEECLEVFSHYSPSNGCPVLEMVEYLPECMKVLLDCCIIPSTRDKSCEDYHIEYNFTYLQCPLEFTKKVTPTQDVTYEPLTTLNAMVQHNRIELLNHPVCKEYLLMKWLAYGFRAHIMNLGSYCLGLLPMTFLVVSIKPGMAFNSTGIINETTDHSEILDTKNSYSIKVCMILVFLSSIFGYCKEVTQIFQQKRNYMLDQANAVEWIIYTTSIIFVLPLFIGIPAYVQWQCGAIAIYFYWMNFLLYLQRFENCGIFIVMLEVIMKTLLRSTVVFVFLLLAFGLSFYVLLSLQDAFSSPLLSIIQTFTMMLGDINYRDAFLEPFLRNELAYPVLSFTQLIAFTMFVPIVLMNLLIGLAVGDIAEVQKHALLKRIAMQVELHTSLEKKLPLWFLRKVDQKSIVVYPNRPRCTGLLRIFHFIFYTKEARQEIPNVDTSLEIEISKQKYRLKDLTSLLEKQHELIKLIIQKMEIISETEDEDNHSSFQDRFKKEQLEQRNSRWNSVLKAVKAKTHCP
Test Details: Whole-cell patch clamp inhibition of dTRPA1
Applied Conditions: dTRPA1, 10 micromolar AITC activation; read-out: IC50 Inward current
pIC50: −log10 of the molar value.

[
  {
    "Compound": "C[C@H]1CCCN1c1ncc(-c2cccc(NC(=O)Cn3cnc4c3c(=O)n(C)c(=O)n4C)n2)cn1 [Formula (Ia)]",
    "pIC50": "~7.00"
  }
]

----------
Measured On: hNav1.2 (Homo sapiens)
Sequence (Q99250 whole entry): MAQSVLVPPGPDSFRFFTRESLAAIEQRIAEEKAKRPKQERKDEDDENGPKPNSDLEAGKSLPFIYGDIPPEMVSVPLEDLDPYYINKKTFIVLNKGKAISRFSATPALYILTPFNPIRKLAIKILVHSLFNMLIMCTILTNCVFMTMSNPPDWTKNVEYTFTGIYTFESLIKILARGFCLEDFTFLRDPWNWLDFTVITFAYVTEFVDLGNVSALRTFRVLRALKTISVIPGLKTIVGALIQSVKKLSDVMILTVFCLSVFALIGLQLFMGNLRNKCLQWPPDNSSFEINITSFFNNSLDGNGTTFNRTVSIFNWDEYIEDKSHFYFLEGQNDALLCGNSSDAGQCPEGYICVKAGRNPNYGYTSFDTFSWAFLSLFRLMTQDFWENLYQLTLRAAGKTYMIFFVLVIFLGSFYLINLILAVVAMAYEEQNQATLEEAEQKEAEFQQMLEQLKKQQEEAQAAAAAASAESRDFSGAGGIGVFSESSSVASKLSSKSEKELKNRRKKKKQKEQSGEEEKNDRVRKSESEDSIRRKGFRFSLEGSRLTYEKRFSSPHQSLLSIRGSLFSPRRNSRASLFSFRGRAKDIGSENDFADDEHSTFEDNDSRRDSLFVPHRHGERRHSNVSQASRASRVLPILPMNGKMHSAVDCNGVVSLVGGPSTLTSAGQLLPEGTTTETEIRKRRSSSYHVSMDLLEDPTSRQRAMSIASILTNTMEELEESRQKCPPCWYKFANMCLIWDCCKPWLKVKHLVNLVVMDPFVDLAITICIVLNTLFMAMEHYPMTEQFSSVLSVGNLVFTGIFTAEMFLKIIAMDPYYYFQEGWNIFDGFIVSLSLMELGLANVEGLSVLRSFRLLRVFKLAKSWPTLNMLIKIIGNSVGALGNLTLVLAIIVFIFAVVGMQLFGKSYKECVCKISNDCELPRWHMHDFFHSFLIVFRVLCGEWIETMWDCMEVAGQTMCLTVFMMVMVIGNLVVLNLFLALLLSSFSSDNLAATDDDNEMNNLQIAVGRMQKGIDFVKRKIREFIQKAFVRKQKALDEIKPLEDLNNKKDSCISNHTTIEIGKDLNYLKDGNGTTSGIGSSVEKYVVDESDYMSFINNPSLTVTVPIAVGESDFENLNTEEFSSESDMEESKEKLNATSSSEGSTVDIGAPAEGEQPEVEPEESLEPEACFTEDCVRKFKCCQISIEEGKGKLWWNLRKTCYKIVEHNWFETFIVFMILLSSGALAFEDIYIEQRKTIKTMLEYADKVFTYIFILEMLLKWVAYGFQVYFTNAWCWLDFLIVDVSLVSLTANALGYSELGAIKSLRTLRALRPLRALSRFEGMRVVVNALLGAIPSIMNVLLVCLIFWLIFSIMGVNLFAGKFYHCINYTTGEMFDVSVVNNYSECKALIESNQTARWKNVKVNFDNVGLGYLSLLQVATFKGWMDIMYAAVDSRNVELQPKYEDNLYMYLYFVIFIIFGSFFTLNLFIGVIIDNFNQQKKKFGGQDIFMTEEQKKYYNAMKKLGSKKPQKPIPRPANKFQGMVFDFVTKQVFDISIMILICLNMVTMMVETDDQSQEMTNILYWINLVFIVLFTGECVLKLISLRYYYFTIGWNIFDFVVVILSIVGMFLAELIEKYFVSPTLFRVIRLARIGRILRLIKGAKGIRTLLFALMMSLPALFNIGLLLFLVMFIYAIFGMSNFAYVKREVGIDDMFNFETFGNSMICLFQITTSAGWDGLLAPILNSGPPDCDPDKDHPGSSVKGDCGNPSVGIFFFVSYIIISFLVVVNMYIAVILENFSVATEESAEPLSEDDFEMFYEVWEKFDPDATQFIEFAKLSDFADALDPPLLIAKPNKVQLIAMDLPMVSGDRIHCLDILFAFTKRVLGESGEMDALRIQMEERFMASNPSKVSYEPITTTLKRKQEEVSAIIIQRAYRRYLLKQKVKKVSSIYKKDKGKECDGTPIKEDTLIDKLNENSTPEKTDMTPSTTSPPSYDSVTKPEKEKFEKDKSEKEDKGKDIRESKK
Test Details: Patch clamp selectivity, hNav1.2
Applied Conditions: same procedure as Example 3; species not given; read-out: IC50 in Patch Clamp Assay, NaV1.2

[
  {
    "Compound": "C[C@H]1CCCN1c1ncc(-c2cccc(NC(=O)Cn3cnc4[nH]c(=O)n(C)c(=O)c43)n2)cn1 [Formula (IV), reference compound]",
    "Measured On": "hNav1.2 (Homo sapiens)",
    "IC50": "> 20 µM"
  }
]

The measurements presented in this section are drawn from patent US9193729B2.
